Every entry's value here was drawn from patent US10493060B2.

Molecular target: Activated ERK1 (Homo sapiens (Human), UniProt P27361)
Sequence (P27361 whole entry): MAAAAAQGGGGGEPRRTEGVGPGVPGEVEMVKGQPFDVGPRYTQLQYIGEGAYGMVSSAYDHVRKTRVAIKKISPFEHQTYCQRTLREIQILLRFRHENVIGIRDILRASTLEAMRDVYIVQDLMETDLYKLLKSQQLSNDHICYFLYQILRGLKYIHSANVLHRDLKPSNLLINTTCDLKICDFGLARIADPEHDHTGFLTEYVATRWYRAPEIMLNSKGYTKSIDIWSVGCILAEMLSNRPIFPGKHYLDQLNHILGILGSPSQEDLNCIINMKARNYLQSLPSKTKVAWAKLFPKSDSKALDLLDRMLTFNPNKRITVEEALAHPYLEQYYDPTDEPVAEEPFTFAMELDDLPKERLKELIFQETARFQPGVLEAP
Test: Active ERK1 kinase assay (Mobility Shift Assay)

- compound: "Cc1cc(-c2n[nH]c3ccc(N4CCC5(CCN(CC(=O)N6CC=C(c7ccc(-c8ncn(C)n8)cc7)CC6)C5)C4=O)cc23)ccn1 (stereo not drawn)"
  system: "Activated ERK1 (Homo sapiens (Human), UniProt P27361)"
  IC50: "≤ 0.05 µM"
- compound: "CC(C)Oc1ccc(-c2n[nH]c3ccc(N4CCC5(CCN(CC(=O)N6CCN(c7ccc(-c8ncn(C)n8)cc7)CC6)C5)C4)cc23)cn1 (stereo not drawn)"
  system: "Activated ERK1 (Homo sapiens (Human), UniProt P27361)"
  IC50: "≥ 0.25 µM"
- compound: "O=C(CN1CC[C@]2(CCN(c3ccc4[nH]nc(-c5ccnc(C(F)(F)F)c5)c4c3)C2=O)C1)N1CC=C(c2ccc(-c3ncc(F)cn3)cc2)CC1"
  system: "Activated ERK1 (Homo sapiens (Human), UniProt P27361)"
  IC50: "≤ 0.05 µM"
- compound: "O=C(Nc1ccc2[nH]nc(-c3ccncc3)c2c1)[C@@H]1CCN(CC(=O)N2CCN(c3ccc(-c4ncccn4)cc3)CC2)C1"
  system: "Activated ERK1 (Homo sapiens (Human), UniProt P27361)"
  IC50: "≤ 0.05 µM"
- compound: "CCNc1nnc(-c2ccc(C3=CCN(C(=O)CN4CC[C@]5(CCN(c6ccc7[nH]nc(-c8ccc(OC(C)C)nc8)c7c6)C5=O)C4)CC3)cc2)s1"
  system: "Activated ERK1 (Homo sapiens (Human), UniProt P27361)"
  IC50: "≤ 0.05 µM"
- compound: "CCNc1nnc(-c2ccc(C3=CCN(C(=O)CN4CC[C@]5(CCN(c6ccc7[nH]nc(-c8ccc(OC(C)C)nc8)c7c6)C5=O)C4)CC3)cc2)o1"
  system: "Activated ERK1 (Homo sapiens (Human), UniProt P27361)"
  IC50: "≤ 0.05 µM"
- compound: "CC(C)Oc1ccc(-c2n[nH]c3ccc(N4CC[C@]5(CCN(CC(=O)N6CC=C(c7ccc(-c8cn(C)nn8)cc7)CC6)C5)C4=O)cc23)cn1"
  system: "Activated ERK1 (Homo sapiens (Human), UniProt P27361)"
  IC50: "≤ 0.05 µM"
- compound: "CC(C)Oc1ccc(-c2n[nH]c3ccc(N4CCCC5(CCN(CC(=O)N6CC=C(c7ccc(-c8ncn(C)n8)cc7)CC6)C5)C4=O)cc23)cn1 (stereo not drawn)"
  system: "Activated ERK1 (Homo sapiens (Human), UniProt P27361)"
  IC50: "≥ 0.25 µM"
- compound: "CC(C)Oc1ccc(-c2n[nH]c3ccc(N4CC[C@]5(CCN(CC(=O)N6CCC(F)(c7ccc(-c8ncn(C)n8)cc7)CC6)C5)C4=O)cc23)cn1"
  system: "Activated ERK1 (Homo sapiens (Human), UniProt P27361)"
  IC50: "≥ 0.25 µM"
- compound: "CC(C)Oc1ccc(-c2n[nH]c3ccc(N4CC[C@]5(CCN(CC(=O)N6CC=C(c7ccc(-c8ncccn8)cc7)CC6)C5)C4=O)cc23)cn1"
  system: "Activated ERK1 (Homo sapiens (Human), UniProt P27361)"
  IC50: "≤ 0.05 µM"
- compound: "Cc1cc(-c2n[nH]c3ccc(N4CC[C@]5(CCN(CC(=O)N6CC=C(c7ccc(-c8ncn(C)n8)cc7)CC6)C5)C4=O)cc23)ccn1"
  system: "Activated ERK1 (Homo sapiens (Human), UniProt P27361)"
  IC50: "≤ 0.05 µM"
- compound: "CC(C)Oc1ccc(-c2n[nH]c3ccc(N4CC[C@]5(CCN(CC(=O)N6CC=C(c7ccc(-n8ccnn8)cc7)CC6)C5)C4=O)cc23)cn1"
  system: "Activated ERK1 (Homo sapiens (Human), UniProt P27361)"
  IC50: "≤ 0.05 µM"
- compound: "Cn1cnc(-c2ccc(C3=CCN(C(=O)CN4CC[C@]5(CCN(c6ccc7[nH]nc(-c8ccc(F)cc8)c7c6)C5=O)C4)CC3)cc2)n1"
  system: "Activated ERK1 (Homo sapiens (Human), UniProt P27361)"
  IC50: "≤ 0.05 µM"
- compound: "CC(C)Oc1ccc(-c2n[nH]c3ccc(N4CCC5(CCN(CC(=O)N6CCN(c7ccc(-c8ncn(C)n8)cc7)CC6)C5)C4=O)cc23)cn1 (stereo not drawn)"
  system: "Activated ERK1 (Homo sapiens (Human), UniProt P27361)"
  IC50: "≤ 0.05 µM"
- compound: "Cn1cnc(-c2ccc(C3=CCN(C(=O)CN4CC[C@]5(CCN(c6ccc7[nH]nc(-c8ccncc8F)c7c6)C5=O)C4)CC3)cc2)n1"
  system: "Activated ERK1 (Homo sapiens (Human), UniProt P27361)"
  IC50: "≤ 0.05 µM"
- compound: "Cn1cnc(-c2ccc(C3=CCN(C(=O)CN4CC[C@]5(CCN(c6ccc7[nH]nc(C8CCNC(C(F)(F)F)C8)c7c6)C5=O)C4)CC3)cc2)n1 (stereo partly drawn)"
  system: "Activated ERK1 (Homo sapiens (Human), UniProt P27361)"
  IC50: "≤ 0.05 µM"
- compound: "CC(C)Oc1ccc(-c2n[nH]c3ccc(N4CCC5(CCN(CC(=O)N6CC=C(c7ccc(-c8ncn(C)n8)cc7)CC6)C5)C4)cc23)cn1 (stereo not drawn)"
  system: "Activated ERK1 (Homo sapiens (Human), UniProt P27361)"
  IC50: "≥ 0.25 µM"
- compound: "CC(C)Oc1ccc(-c2n[nH]c3ccc(N4CC[C@]5(CCN(CC(=O)N6CC=C(c7ccc(-c8ncc(F)cn8)cc7)CC6)C5)C4=O)cc23)cn1"
  system: "Activated ERK1 (Homo sapiens (Human), UniProt P27361)"
  IC50: "≤ 0.05 µM"
- compound: "Cc1nnc(-c2ccc(C3=CCN(C(=O)CN4CC[C@]5(CCN(c6ccc7[nH]nc(-c8ccc(OC(C)C)nc8)c7c6)C5=O)C4)CC3)cc2)o1"
  system: "Activated ERK1 (Homo sapiens (Human), UniProt P27361)"
  IC50: "≤ 0.05 µM"
- compound: "CC(C)Oc1ccc(-c2n[nH]c3ccc(N4CC[C@]5(CCN(CC(=O)N6CC=C(c7ccc(-c8ncn(C)n8)cc7)CC6)C5)C4=O)cc23)cn1"
  system: "Activated ERK1 (Homo sapiens (Human), UniProt P27361)"
  IC50: "≤ 0.05 µM"
- compound: "CC(C)Oc1ccc(-c2n[nH]c3ccc(N4CC[C@]5(CCN(CC(=O)N6CCC(C78CC(c9ncn(C)n9)(C7)C8)CC6)C5)C4=O)cc23)cn1"
  system: "Activated ERK1 (Homo sapiens (Human), UniProt P27361)"
  IC50: "0.05 to 0.25 µM"
- compound: "CC(C)Oc1ccc(-c2n[nH]c3ccc(N4CCC5(CCN(Cc6ccccc6)C5)C4=O)cc23)cn1 (stereo not drawn)"
  system: "Activated ERK1 (Homo sapiens (Human), UniProt P27361)"
  IC50: "≥ 0.25 µM"
- compound: "CC(C)Oc1cc(-c2n[nH]c3ccc(N4CC[C@]5(CCN(CC(=O)N6CC=C(c7ccc(-c8ncn(C)n8)cc7)CC6)C5)C4=O)cc23)ccn1"
  system: "Activated ERK1 (Homo sapiens (Human), UniProt P27361)"
  IC50: "≤ 0.05 µM"
- compound: "CC(C)Oc1ccc(-c2n[nH]c3ccc(N4CC[C@]5(CCN(CC(=O)N6CC=C(c7ccc(-c8ncccn8)cn7)CC6)C5)C4=O)cc23)cn1"
  system: "Activated ERK1 (Homo sapiens (Human), UniProt P27361)"
  IC50: "≥ 0.25 µM"
